Tested on: Carrot-1 RNA aptamer
Assay Remarks: Properties of Carrot-1 RNA aptamer with different fluorophores (spectra, extinction coefficient, quantum yield, activation fold)
Format: biochemical
Condition Info: fluorophore bound to Carrot-1 RNA aptamer
Recorded Endpoint: Quantum yield

                            substance_smiles  recorded_endpoint  measured
 0  CC(C)CN1C(=O)/C(=C/c2cc(F)c(O)c(Br)c2)N=C1/C=C/c1ncc(C#N)cn1      Quantum yield      0.05
 1  CCN(CC)c1ccc(/C=C2N=C(/C=C/c3ccc(Cl)cc3)N(CC(=O)OC)C\2=O)nc1      Quantum yield      0.02
 2  CN1C(=O)/C(=C/c2ccc(N(C)CCN)cc2)N=C1/C=C/c1cccc(F)c1      Quantum yield      0.38
 3  COC(=O)CNCCN(C)c1ccc(/C=C2N=C(/C=C/c3ccc(Br)cc3)N(C)C\2=O)cc1      Quantum yield      0.11
 4  CN1C(=O)/C(=C/c2ccc(N(C)CCO)cc2)N=C1/C=C/c1ccc(F)cc1      Quantum yield      0.46
 5  O=C1/C(=C/c2ccc(O)c(Br)c2)N=C(/C=C/c2cccc(Cl)c2)N1CCO      Quantum yield      0.03
 6  CN1C(=O)/C(=C/c2ccc(N)cc2)N=C1/C=C/c1ccc(C#N)cc1      Quantum yield      0.14
 7  CN1C(=S)/C(=C/c2cc(F)c(O)c(F)c2)N=C1/C=C/c1ccc(C#N)cc1      Quantum yield      0.21
 8  CN1C(=O)/C(=C/c2cnc(N(C)CCC#N)nc2)N=C1/C=C/c1ccccc1I      Quantum yield      0.09
 9  CN(C)CCN(C)c1ccc(/C=C2N=C(/C=C/c3cccc(F)c3)N(C)C\2=O)cc1      Quantum yield      0.38
10  C=CCOCCN(C)c1ccc(/C=C2N=C(/C=C/c3ccccc3C#N)N(C)C\2=S)cc1      Quantum yield      0.12
11  CN1C(=O)/C(=C/c2cc(F)c(O)c(F)c2)N=C1/C=C/c1cccc(O)c1      Quantum yield      0.37
12  CN1CCc2cc(/C=C3N=C(/C=C/c4ccc(Br)nc4)N(CC(F)(F)F)C\3=O)ccc21      Quantum yield      0.05
13  CNC(=O)CN1C(=O)/C(=C/c2cc(Cl)c(O)c(Cl)c2)N=C1/C=C/c1ccc(Br)cc1      Quantum yield      0.02
14  CN1CCc2cc(/C=C3N=C(/C=C/c4ccc(F)nc4)N(CCO)C\3=O)ccc21      Quantum yield      0.04
15  CN1C(=O)/C(=C/c2cc(Br)c(O)c(Br)c2)N=C1/C=C/c1ccc(F)cc1      Quantum yield      0.08
16  CN1C(=O)/C(=C/c2ccc(N(C)CCS(=O)(=O)O)cc2)N=C1/C=C/c1ccc(C#N)cc1      Quantum yield      0.26
17  C#CCOCCN(C)c1ccc(/C=C2N=C(/C=C/c3ccc(F)cc3)N(C)C\2=O)cc1      Quantum yield      0.28
18  CN1C(=O)/C(=C/c2ccc(N(C)CCO)cc2)N=C1/C=C/c1cccc(O)c1      Quantum yield      0.47
19  COCCOCCOCCOCCN1C(=O)/C(=C/c2cc(F)c(O)c(I)c2)N=C1/C=C/c1ccc(Cl)cc1      Quantum yield      0.03
20  CCCN1C(=S)/C(=C/c2ccc(N(C)C)nc2)N=C1/C=C/c1ccccc1F      Quantum yield      0.09
21  CN1C(=S)/C(=C/c2cc(F)c(O)c(F)c2)N=C1/C=C/c1ccc(F)cc1      Quantum yield      0.27
22  CN1C(=O)/C(=C/c2ccc(N(C)CCO)cc2)N=C1/C=C/c1cccc(F)c1      Quantum yield      0.43
23  CN1C(=O)/C(=C/c2cc(F)c(O)c(F)c2)N=C1/C=C/c1ccccn1      Quantum yield      0.31
24  COCCOCCOCCOCC(=O)OCCN(C)c1ccc(/C=C2N=C(/C=C/c3ccc(C#N)cc3)N(C)C\2=O)cc1      Quantum yield      0.15
25  C#CCN1C(=O)/C(=C/c2ccc(O)c(Cl)c2)N=C1/C=C/c1ccc(I)cc1      Quantum yield      0.02
